assay: gradient 5% acetonitrile 3 min, to 50% in 2 min, to 85% in 15 min, held 3 min, 100 µL/min; details: column: Zorbax Extend-C18 2.1 x 50 mm; eluents: water / acetonitrile, 0.1% formic acid
observedProperty: RP-LC retention time
Remember to follow the number with its unit.

Lookup: Recorded RP-LC retention time for CCC1(c2ccccc2)NC(=O)N(C)C1=O (configuration not stated) , please?
Found: 794 s

Lookup: Recorded RP-LC retention time for `CCN1CCN(c2cc(C(=O)O)c3cc(NS(=O)(=O)c4ccc(C(C)C)cc4)ccc3n2)CC1` , please?
Found: 724 s

Lookup: Recorded RP-LC retention time for Cc1ccccc1NC(=O)C1C(=O)NC2(C)CC1c1ccccc1O2 (configuration not stated) , please?
Found: 869 s

Lookup: Recorded RP-LC retention time for CC(C)NC(=O)c1ccc(OCC2CCCN(C(=O)Cc3ccc(Cl)cc3)C2)cc1 (configuration not stated) , please?
Found: 918 s

Lookup: Recorded RP-LC retention time for `O=C([C@@H]1C[C@H](F)CN1C(=O)Cc1ccc(F)cc1)N1CCCCC1` , please?
Found: 601 s

Lookup: Recorded RP-LC retention time for `CN(C)c1ccc(NC(=O)COc2ccc(-c3nnc4n3CCCC4)cc2)cc1` , please?
Found: 585 s

Lookup: Recorded RP-LC retention time for `CCCn1cnc2cc(CNC(=O)c3ccc(C(F)(F)F)cc3)ccc21` , please?
Found: 674 s

Lookup: Recorded RP-LC retention time for `COc1cc(Nc2c(C(=O)N3CCC(C)CC3)cnc3nc(C)ccc23)cc(OC)c1` , please?
Found: 662 s

Lookup: Recorded RP-LC retention time for COc1ccc(OC)c(CNC(=O)C2CCCN(c3nnc4cccc(C)n34)C2)c1 (configuration not stated) , please?
Found: 672 s

Lookup: Recorded RP-LC retention time for Cc1nc(-c2noc(-c3ccc(F)cc3)n2)cn1CC(=O)NC1CCc2ccccc21 (configuration not stated) , please?
Found: 874 s

Lookup: Recorded RP-LC retention time for `O=C(Cc1nnc2c(-c3nc(C4CC4)no3)cccn12)N1CCSCC1` , please?
Found: 653 s

Lookup: Recorded RP-LC retention time for `CCN1C(=O)c2cccnc2Sc2cc(CNC(=O)c3ccc(OC)cc3)ccc21` , please?
Found: 755 s

---

experiment: gradient 5% acetonitrile 3 min, to 50% in 2 min, to 85% in 15 min, held 3 min, 100 µL/min; conditions: column: Zorbax Extend-C18 2.1 x 50 mm; eluents: water / acetonitrile, 0.1% formic acid
observedProperty: RP-LC retention time (s)
Give just the numeric value; s need not be written.

Lookup: Recorded RP-LC retention time for CC(NC(=O)c1ccco1)c1nc(-c2ccc3ncn(C)c3c2)no1 (stereo not given) , please?
Found: 599

Lookup: Recorded RP-LC retention time for Cc1ccc(S(=O)(=O)N(C)c2ccc(C(=O)N3C(C)CCCC3C)cc2)cc1 (stereo not given) , please?
Found: 961

Lookup: Recorded RP-LC retention time for `Clc1ccc(N2CCN(Cc3cc4ccccn4n3)CC2)cc1` , please?
Found: 754

Lookup: Recorded RP-LC retention time for c1ccc(-c2noc(C3CCN(Cc4ccco4)C3)n2)cc1 (stereo not given) , please?
Found: 644

Lookup: Recorded RP-LC retention time for `CCCS(=O)(=O)N1CCCN(C2=NS(=O)(=O)C(c3ccc(Cl)cc3)=C2C)CC1` , please?
Found: 934

Lookup: Recorded RP-LC retention time for `CC(C)n1cnc(S(=O)(=O)N2CCC(C(=O)NCc3ccccc3)CC2)c1` , please?
Found: 712

Lookup: Recorded RP-LC retention time for `O=C(Cn1cnc2nc3c(cc2c1=O)CCCC3)Nc1ccccc1Br` , please?
Found: 732

Lookup: Recorded RP-LC retention time for O=C1NC(C(=O)Nc2ccc(F)c(F)c2)Cn2cccc21 (stereo not given) , please?
Found: 693

Lookup: Recorded RP-LC retention time for `O=C(Nc1cc(-c2ccccn2)no1)c1ccc2ccccc2n1` , please?
Found: 965

Lookup: Recorded RP-LC retention time for O=C1CC(c2nc(-c3ccc(Cl)cc3)no2)CN1c1ccc2c(c1)OCCO2 (stereo not given) , please?
Found: 1040

Lookup: Recorded RP-LC retention time for `CC(C)(C)c1csc(-c2csc(S(=O)(=O)Nc3ccccc3F)c2)n1` , please?
Found: 1120

Lookup: Recorded RP-LC retention time for `Clc1ccc(-c2nc(N3CCCCCC3)c3ccccc3n2)cc1` , please?
Found: 847

Lookup: Recorded RP-LC retention time for `CCOc1ccc(NC(=O)C2CCN(S(=O)(=O)c3c(C)nn(-c4ccccc4)c3C)CC2)cc1` , please?
Found: 963

Lookup: Recorded RP-LC retention time for `Cc1ccc2c(c1)N(C(=O)Cn1c(=O)c(CCC(=O)NCC(C)C)nc3ccccc31)CCO2` , please?
Found: 884

Lookup: Recorded RP-LC retention time for CCN(C(=O)CN1C(=O)NC(c2ccc(C)cc2)C2=C1COC2=O)c1cccc(C)c1 (stereo not given) , please?
Found: 817
